// values below are reported Ki
Target: endopeptidase 24-15 (Rattus norvegicus, UniProt P24155)
Sequence (P24155 whole entry): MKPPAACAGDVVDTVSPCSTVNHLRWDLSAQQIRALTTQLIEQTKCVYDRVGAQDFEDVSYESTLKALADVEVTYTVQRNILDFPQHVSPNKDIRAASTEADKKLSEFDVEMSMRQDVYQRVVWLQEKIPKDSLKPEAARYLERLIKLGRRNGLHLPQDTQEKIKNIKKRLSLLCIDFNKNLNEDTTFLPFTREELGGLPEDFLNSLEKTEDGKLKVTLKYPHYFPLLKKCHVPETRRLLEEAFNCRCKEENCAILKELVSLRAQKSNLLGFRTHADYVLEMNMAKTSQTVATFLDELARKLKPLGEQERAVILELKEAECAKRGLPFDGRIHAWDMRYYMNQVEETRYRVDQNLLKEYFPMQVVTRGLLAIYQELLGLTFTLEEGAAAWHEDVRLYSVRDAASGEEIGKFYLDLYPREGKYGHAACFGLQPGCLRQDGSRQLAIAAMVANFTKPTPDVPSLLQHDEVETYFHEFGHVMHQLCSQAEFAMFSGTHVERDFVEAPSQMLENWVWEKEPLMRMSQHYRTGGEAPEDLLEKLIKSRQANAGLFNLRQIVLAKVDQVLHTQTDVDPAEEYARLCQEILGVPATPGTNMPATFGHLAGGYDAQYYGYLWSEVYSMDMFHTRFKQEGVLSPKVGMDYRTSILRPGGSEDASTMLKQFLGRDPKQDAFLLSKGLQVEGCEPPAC
Assay: Inhibition of neurotensin degradation by purified endopeptidase 24-15 (HPLC), inhibition constant Ki
Numeric only. Scale: nM

Below: 3 compounds and their reported Ki.
>  <COMPOUND>
CSCC[C@H](NC(=O)[C@H](CCCNC(=N)N)NC(=O)C(C)CP(=O)(O)C(Cc1ccccc1)NC(=O)OCc1ccccc1)C(=O)O (mixture of isomers) [compound 42, Z--Phe .PSI. (PO2 CH2)Ala--Arg--Met]

>  <MEASURED ON>
endopeptidase 24-15 (Rattus norvegicus, UniProt P24155)

>  <OBSERVED RESULT>
0.067

$$$$
>  <COMPOUND>
CC(CP(=O)(O)C(Cc1ccccc1)NC(=O)OCc1ccccc1)C(=O)N[C@@H](CCCCN)C(=O)N[C@@H](CCC(N)=O)C(=O)O (mixture of isomers) [compound 28, Z--Phe .PSI. (PO2 CH2)Ala--Lys--Gln]

>  <MEASURED ON>
endopeptidase 24-15 (Rattus norvegicus, UniProt P24155)

>  <OBSERVED RESULT>
2.18

$$$$
>  <COMPOUND>
CC(CP(=O)(O)C(Cc1ccccc1)NC(=O)OCc1ccccc1)C(=O)N[C@@H](CCCNC(=N)N)C(=O)N[C@@H](Cc1ccccc1)C(=O)O (mixture of isomers) [compound 43, Z--Phe .PSI. (PO2 CH2)Ala--Arg--Phe]

>  <MEASURED ON>
endopeptidase 24-15 (Rattus norvegicus, UniProt P24155)

>  <OBSERVED RESULT>
0.158

$$$$

For N=C(N)NCCC[C@H](NC(=O)CCP(=O)(O)C(Cc1ccccc1)NC(=O)OCc1ccccc1)C(=O)N[C@@H](Cc1ccccc1)C(=O)O (mixture of isomers) [compound 4, Z--Phe .PSI. (PO2 CH2)Gly--Arg--Phe] , write its Ki. 2.7
